- assay.explanation: blockers of yeast NLRP3/ASC/caspase-1 reporter – luminescence, uHTS, primary screen (AID 2825);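 further: plate controls were induced DMSO wells for no effect and uninduced yeast grown without galactose for full effect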
- assay.conditions: Yeast reconstituted NLRP3/ASC/caspase-1, beta-gal luminescence, 24 h; at 10 µM; hits give high values
Hit rate of the full screen: of about 330,000 compounds, about 1,300 (0.39%) were called active. Shown is part of a subset that was picked to be rich in actives.
The threshold is inclusive: inhibition of exactly 20% counts as true; values below receive false.

Answered examples (6):
{"compound": "CC(OC(=O)c1cc2ccccc2[nH]1)C(=O)N(C)c1ccccc1 (stereo not drawn)", "cat": "false"}
{"compound": "CCC(C)Sc1nc2c(cnn2-c2ccc(F)cc2)c(=O)[nH]1 (stereo not drawn)", "cat": "false"}
{"compound": "CCCCNC(=O)C1(O)c2ccccc2NC(=O)N1c1ccc(Cl)cc1 (stereo not drawn)", "cat": "false"}
{"compound": "CC1CCN(S(=O)(=O)c2ccc3[nH]c(=O)ccc3c2)CC1", "cat": "false"}
{"compound": "COc1ccc(S(=O)(=O)N2CCOC23CCN(S(=O)(=O)c2ccc([N+](=O)[O-])cc2)CC3)cc1", "cat": "true"}
{"compound": "O=C(N/N=C/c1cccc([N+](=O)[O-])c1)C1CC(=O)N(c2ccc(Br)cc2)C1 (stereo not drawn)", "cat": "false"}

Please tell me: is the compound "O=C(CCNC(=O)c1ccccc1)NN=Cc1ccc(Br)o1" at or over 20% in terms of inhibition? true

Please tell me: is the compound "COc1cc(NC(=O)C2=CC(c3ccco3)=NS(=O)(=O)N2C)cc(OC)c1OC" at or over 20% in terms of inhibition? false

Please tell me: is the compound "O=S(=O)(c1ccc(Cl)cc1)c1nc(-c2ccco2)oc1N1CCCCC1" at or over 20% in terms of inhibition? true

Please tell me: is the compound "Cc1c(C(=O)N2CCCc3ccccc32)oc2ccccc12" at or over 20% in terms of inhibition? true

Please tell me: is the compound "O=[N+]([O-])c1cccc(/C=N/Nc2ncc(Br)cn2)c1" at or over 20% in terms of inhibition? true

Please tell me: is the compound "CC(C)NS(=O)(=O)c1ccc(OCC(=O)NC2CCCCCC2)cc1" at or over 20% in terms of inhibition? false

Please tell me: is the compound "Cc1ccnc(Nc2nc3ccccc3s2)n1" at or over 20% in terms of inhibition? true

Please tell me: is the compound "Cc1ccc(NC(=O)O/N=C/c2cccc([N+](=O)[O-])c2)cc1" at or over 20% in terms of inhibition? false

Please tell me: is the compound "O=C(CSc1ccc(-c2ccc(-n3cccn3)cc2)nn1)Nc1ccc([N+](=O)[O-])cc1" at or over 20% in terms of inhibition? true

Please tell me: is the compound "O=C(COc1ccc(Br)cc1F)NC1CCN(Cc2ccccc2)CC1" at or over 20% in terms of inhibition? true

Please tell me: is the compound "COc1ccc(-c2oc(/N=C/N3CCCC3)c(C#N)c2-c2ccc(OC)cc2)cc1" at or over 20% in terms of inhibition? false

Please tell me: is the compound Cc1c(Cl)c([N+](=O)[O-])nn1CCCC(=O)NC(C)c1ccccc1 (stereo not drawn) at or over 20% in terms of inhibition? false

Please tell me: is the compound "O=C(CCC(=O)c1cccs1)Nc1nc2ccccc2s1" at or over 20% in terms of inhibition? false

Please tell me: is the compound "Cc1ccnc(-n2sc3ccccc3c2=O)n1" at or over 20% in terms of inhibition? false

Please tell me: is the compound "COc1ccccc1OCc1nc2ccccc2s1" at or over 20% in terms of inhibition? true

Please tell me: is the compound "O=C(CSc1ccc([N+](=O)[O-])cn1)Nc1ccc(N2CCOCC2)cc1" at or over 20% in terms of inhibition? false

Please tell me: is the compound "Cc1c(C(=O)OCC(=O)N2CCCC2=O)oc2ccccc12" at or over 20% in terms of inhibition? true

---

- assay.explanation: blockers of yeast NLRP3/ASC/caspase-1 reporter – luminescence, uHTS, primary screen (AID 2825)
- assay.conditions: Yeast reconstituted NLRP3/ASC/caspase-1, beta-gal luminescence, 24 h; at 10 µM
The whole screen tested about 330,000 compounds, of which about 1,300 (0.39%) were called active.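 Rule for the calls: active = inhibition of 50% or more; inactive = inhibition below 50%.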 What follows is part of a selection rich in actives, with near analogues and random picks from the rest.
Pick one: active, inactive

Answered examples (5):
{"compound": "Cc1ccc(-c2nnc(Nc3ccc(C(=O)N(C)C)cc3)c3ccccc23)cc1S(N)(=O)=O", "cat": "inactive"}
{"compound": "Cc1nc2sc(C(c3ccco3)N3CCC4(CC3)OCCO4)c(O)n2n1 (stereo unspecified)", "cat": "inactive"}
{"compound": "CC(C)Sc1ncnc2c1cnn2-c1ccccc1", "cat": "active"}
{"compound": "CC(NC(=O)COC(=O)CCC(=O)c1ccc(Cl)cc1)c1ccccc1 (stereo unspecified)", "cat": "inactive"}
{"compound": "Cc1onc(-c2c(Cl)cccc2Cl)c1C(=O)c1c[nH]c(C(=O)NC2CC2)c1", "cat": "inactive"}

Now consider a different compound.
Per the assay record, what outcome was assigned to "CCc1cc(-c2n[nH]c(=S)n2CC(C)C)cs1" ? inactive

---

- assay.explanation: blockers of yeast NLRP3/ASC/caspase-1 reporter – luminescence, uHTS, primary screen (AID 2825)
- assay.conditions: Yeast reconstituted NLRP3/ASC/caspase-1, beta-gal luminescence, 24 h; at 10 µM; hits give high values
The campaign covered roughly 330,000 compounds. About 1,300 (0.39%) were called active. The sample holds actives, similar compounds and a random draw of the others, so the mix is not that of the screen.
quantity.measured: inhibition (%)
Write down the numeric answer in % and omit the unit.

Some solved entries appear below for comparison.
{"compound": "O=C(CCC(=O)OCc1ccc(Cl)cc1)Nc1ccccc1", "quantity.measured": "inhibition", "reported.result": 21}
{"compound": "O=C1C=C(c2ccc(Cl)cc2)C(=O)N1Nc1ccccc1", "quantity.measured": "inhibition", "reported.result": 74.6}
{"compound": "Cc1cccc(NC(=S)NC(=O)c2ccc(Br)o2)c1", "quantity.measured": "inhibition", "reported.result": 57.6}

Shift focus to the following entry.
Please supply the value of reported inhibition for the item "COCCn1c(=O)[nH]c2cc(C(=O)NCc3cccnc3)ccc2c1=O" -3.21

---

- assay.explanation: blockers of yeast NLRP3/ASC/caspase-1 reporter – luminescence, uHTS, primary screen (AID 2825);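 further: plate controls were induced DMSO wells for no effect and uninduced yeast grown without galactose for full effect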
- assay.conditions: Yeast reconstituted NLRP3/ASC/caspase-1, beta-gal luminescence, 24 h; at 10 µM
About 1,300 (0.39%) of roughly 330,000 compounds were called active.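 How the source made its calls: active means inhibition of 50% or more; inactive means inhibition below 50%.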 Only a selection was taken, and actives are over-represented in it overall.
Pick one: active, inactive

Answered examples (3):
{"compound": "Cc1ccc(NS(=O)(=O)c2cccs2)cc1S(=O)(=O)N1CCCCCC1", "cat": "inactive"}
{"compound": "O=C(NCc1ccc2c(c1)OCO2)c1c(O)nc2sccn2c1=O", "cat": "active"}
{"compound": "CCOC(=O)C1CCN(Cc2c(C(=O)N3CCOCC3)nc3c(C)cccn23)CC1", "cat": "inactive"}

Per the assay record, what outcome was assigned to "Cc1ccc(OCc2nc3ccccc3n2C)cc1" ? active

Per the assay record, what outcome was assigned to "Cc1ccc2cccc(S(=O)(=O)N3CCN(c4ccccc4F)CC3)c2n1" ? active

Per the assay record, what outcome was assigned to CCOC(=O)C1CCN(C(=O)CC2C(=O)N(Cc3ccccc3)C(C)c3nc4ccccc4n32)CC1 (stereo not given) ? inactive

Per the assay record, what outcome was assigned to CCOc1ccc(C2/C(=C(/O)c3ccc4c(c3)CC(C)O4)C(=O)C(=O)N2CCCn2ccnc2)cc1 (stereo not given) ? inactive

Per the assay record, what outcome was assigned to "COc1ccc(C(=O)c2c(C)c(CCC#N)n3ccccc23)c(OC)c1" ? inactive

Per the assay record, what outcome was assigned to "Cc1ccccc1N1CCN(S(=O)(=O)c2ccc3ccccc3c2)CC1" ? inactive

Per the assay record, what outcome was assigned to "CCOc1cc(/C=N/NC(=O)OC)ccc1OCCSc1ccc(Cl)cc1" ? inactive

---

# reported inhibition; entries follow
- assay.explanation: blockers of yeast NLRP3/ASC/caspase-1 reporter – luminescence, uHTS, primary screen (AID 2825);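 further: plate controls were induced DMSO wells for no effect and uninduced yeast grown without galactose for full effect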
- assay.conditions: Yeast reconstituted NLRP3/ASC/caspase-1, beta-gal luminescence, 24 h; at 10 µM; hits give high values
Among all 330,000 compounds or so, about 1,300 (0.39%) were called active. This is one part of a sample in which actives are shown more often than they occur.
Write down the numeric answer in % and omit the unit.

Please supply the value of reported inhibition for the item "Cc1ccc(CNC(=O)Cn2cnc(S(=O)(=O)N3CCCCC3)c2)o1" 4.74

---

- assay.explanation: blockers of yeast NLRP3/ASC/caspase-1 reporter – luminescence, uHTS, primary screen (AID 2825);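 further: plate controls were induced DMSO wells for no effect and uninduced yeast grown without galactose for full effect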
- assay.conditions: Yeast reconstituted NLRP3/ASC/caspase-1, beta-gal luminescence, 24 h; at 10 µM; hits give high values
The whole screen tested about 330,000 compounds, of which about 1,300 (0.39%) were called active. Only a selection was taken, and actives are over-represented in it overall.
quantity.measured: inhibition (%)
Write down the numeric answer in % and omit the unit.

{"molecule": "COc1ccc(NC(=O)C2CCC(CNC(=O)[C@@H]3Cc4ccccc4CN3)CC2)cc1 (some centres undefined)", "inhibition [%]": -1.77}
{"molecule": "Cc1ccc(C)c(N2CCN(C(=O)Cn3ncn4cccc4c3=O)CC2)c1", "inhibition [%]": -5.29}
{"molecule": "C=CCn1c(CNS(=O)(=O)c2ccc(Br)cc2)nnc1SC", "inhibition [%]": 14.4}
{"molecule": "CCOP(=O)(OCC)C(Nc1cccc(C)c1)c1ccc(F)cc1 (centres undefined)", "inhibition [%]": 3.8}
{"molecule": "CCN(CC)C(=O)c1sc2nc(-c3ccccc3)ccc2c1N", "inhibition [%]": 20.7}
{"molecule": "Cc1cc(=O)oc2cc(NC(=O)C(C)Oc3ccccc3)ccc12 (centres undefined)", "inhibition [%]": 10.8}

Please supply the value of reported inhibition for the item "Cc1cc(C)nc(N/N=C/c2c(CO)cnc(C)c2O)n1" 15.2

Please supply the value of reported inhibition for the item "CC(C)NC(=S)NN=C1CCCCCCCCCCC1" 26.8

Please supply the value of reported inhibition for the item "CCCNc1ncnc2sc(C)c(C)c12" 55.9

Please supply the value of reported inhibition for the item "CCN(CC)CCCSc1nc2ccccc2s1" 15.5

Please supply the value of reported inhibition for the item "CCOC(=O)c1c(C)[nH]c(C(=O)OCC(=O)c2ccc(OC)cc2OC)c1C" 22.6

Please supply the value of reported inhibition for the item "CC(=O)O[C@H]1CC[C@@]2(C)[C@@H](CC[C@@H]3[C@@H]2CC[C@]2(C)[C@@H](C(C)(C)O)C[C@@H]32)C1" 32.9
